Values from PubChem BioAssay (NCI)

- System: UACC-62 melanoma
- PROTOCOL: NCI-60 one-dose screen, 48 h (100 = growth as untreated, 0 = no growth, -100 = all killed)
- STUDY CONDITIONS: 10 µM unless noted
- Procedure: Growth inhibition of the UACC-62 human tumor cell line is measured as a screen for anti-cancer activity. Cells are grown in 96 well plates and exposed to the test compound for 48 hours. Compounds are tested at a single concentration, which is 10^-5 M for most compounds. The reported endpoint is percent growth (GI% or GIPRCNT), where numbers from 0 - 100% represent growth inhibition, and numbers from -100% - 0 represent cell death. For example, a value of 40 represents 60% growth inhibition. […]
The panel holds about 83,000 compounds, 20% with a hit somewhere; the sample as a whole holds those more often.
Could you please report measured growth for the items listed next?
Please give a number only; it is taken to be in %.

Provide only the value of recorded growth for COc1ccc2c(c1)Oc1nc(N)c(C#N)c(N)c1C2Sc1ccc(C)cc1 (centres undefined)
9.86

Provide only the value of recorded growth for O=C1/C(=C/C=C/c2ccco2)SC(=S)N1C1CCCCC1
56.7

Provide only the value of recorded growth for COc1ccc(NC(=O)CSc2nnc(-c3ccc4nc(-c5ccc(OC)c(OC)c5)[nH]c4c3)o2)cc1OC
92

Provide only the value of recorded growth for CC1(C)CC[C@]2(C(=O)N3CCOCC3)CC[C@]3(C)C(=CC[C@@H]4[C@@]5(C)C/C(=C/c6ccco6)C(=O)C(C)(C)[C@@H]5CC[C@]43C)[C@@H]2C1
80.3

Provide only the value of recorded growth for C=CCn1c(-c2nc3ccc(C(=C(C#N)C#N)c4ccccc4)cc3[nH]2)cc2cc(Br)ccc21
39.5

Provide only the value of recorded growth for N/C(=N\C(N)=N\c1nc2ccccc2s1)c1ccncc1Cl
28

Provide only the value of recorded growth for C=C(C=O)[C@@H]1CC[C@]2(CO)CC[C@]3(C)[C@H](CC[C@@H]4[C@@]5(C)CCCNC(C)(C)[C@@H]5CC[C@]43C)[C@@H]12
83.2

Provide only the value of recorded growth for COc1cc(-c2nn(C(C)(C)C)cc2-c2ccnc(NCCCNS(=O)(=O)c3ccccc3)n2)ccc1Cl
78.4

Provide only the value of recorded growth for Cc1ccc(NC(=O)c2ccc(CN3CCOCC3)c(C(F)(F)F)c2)cc1Oc1ccc(-c2[nH]nc3ncnc(N)c23)cc1
19.4
